Test: ABTS free radical scavenging assay
Conditions: 30 µM, 60 min
Description: Antioxidant activity. As mentioned before, oxidative stress is one of the components of AD pathomechanism and is characterised by an imbalance in the production of ROS. […] In this assay, the ability of compounds to scavenge ABTS^• radicals, which are generated from 2,2’-azino-bis(3-ethylbenzothiazoline-6-sulphonic acid) (ABTS), is measured. […]
# % of ABTS• reduction ± SD annotations
ATTRIBUTE MEASURED: % of ABTS• reduction ± SD (%)

> print(dat)
                                   compound  result
1  O=S(=O)(c1ccccc1)n1ccc2c(OCCNCC3CCN(Cc4ccccc4)CC3)cccc21 [Compound 12]      10
2  O=S(=O)(c1ccccc1)N1CCc2c(OCCNCC3CCN(Cc4ccccc4)CC3)cccc21 [Compound 15]      11
3  O=S(=O)(c1ccccc1)N1CCc2c(OCCNCCCC3CCN(Cc4ccccc4)CC3)cccc21 [Compound 16]       7
4  O=c1[nH]c2c(OCCNCC3CCN(Cc4ccccc4)CC3)cccc2n1Cc1ccccc1 [Compound 17]      18
5  O=c1[nH]c2c(OCCNCCC3CCN(Cc4ccccc4)CC3)cccc2n1Cc1ccccc1 [Compound 18]      27
6  O=S(=O)(c1ccccc1)n1ccc2c(OCCNCCCC3CCN(Cc4ccccc4)CC3)cccc21 [Compound 14]       6
7  O=S(=O)(c1ccccc1)n1ccc2c(OCCNCCC3CCN(Cc4ccccc4)CC3)cccc21 [Compound 13]       6
8  O=c1[nH]c2c(OCCNCCCC3CCN(Cc4ccccc4)CC3)cccc2n1Cc1ccccc1 [Compound 19]      22
